From: patent US20180334496A1

# SYSTEM: T1, serum purified human Complement Factor D (human, UniProt P00746 26-253)
# T1 construct: Serum purified protein flowed over the captured antibodies; also called CFD; human CFD
# T1 sequence (P00746 26-253): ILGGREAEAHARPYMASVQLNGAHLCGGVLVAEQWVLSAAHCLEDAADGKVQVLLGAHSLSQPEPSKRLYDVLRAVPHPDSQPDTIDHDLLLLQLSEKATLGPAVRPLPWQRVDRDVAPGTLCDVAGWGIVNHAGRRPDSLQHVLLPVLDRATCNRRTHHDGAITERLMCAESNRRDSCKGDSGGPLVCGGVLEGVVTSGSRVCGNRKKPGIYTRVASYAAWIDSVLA
# ASSAY_DETAILS: SPR Biacore, antibody on protein A chip, single cycle kinetics, 25 C;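 further: antibodies captured to roughly 70 RU on the protein A surface in HBS-EP+ running buffer, with kinetic constants derived by BIAevaluation fitting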
Quick reference: koff of the listed items.
Report as a plain number; the unit s⁻¹ is understood.

Recorded results for 3 binders are shown here.
- BINDER: "31S54V59D / 32W60W101V (antibody, V domains shown, KCD119 TAF variant; full antibody captured on protein A) VH: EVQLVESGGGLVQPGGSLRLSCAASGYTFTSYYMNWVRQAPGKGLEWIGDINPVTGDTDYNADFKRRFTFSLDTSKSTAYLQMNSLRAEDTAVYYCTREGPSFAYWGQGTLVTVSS VL: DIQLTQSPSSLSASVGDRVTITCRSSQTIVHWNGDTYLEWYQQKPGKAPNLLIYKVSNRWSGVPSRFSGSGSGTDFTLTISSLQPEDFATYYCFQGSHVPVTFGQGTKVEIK"
  QUANTITY_NAME: "koff"
  READING: "8.84e-05"
- BINDER: "KCD119 TAF / KCD119 TAF (antibody, V domains shown, Humanized KCD119; tested as full antibody captured on protein A; also called D19 TAF) VH: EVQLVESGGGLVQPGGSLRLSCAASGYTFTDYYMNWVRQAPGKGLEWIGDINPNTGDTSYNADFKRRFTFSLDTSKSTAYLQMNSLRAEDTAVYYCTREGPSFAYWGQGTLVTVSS VL: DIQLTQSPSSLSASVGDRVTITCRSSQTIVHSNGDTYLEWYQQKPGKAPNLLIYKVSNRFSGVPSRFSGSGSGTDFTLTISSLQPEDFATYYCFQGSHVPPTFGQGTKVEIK"
  QUANTITY_NAME: "koff"
  READING: 0.00155
- BINDER: "54V59D / 101V (antibody, V domains shown, KCD119 TAF variant; full antibody captured on protein A) VH: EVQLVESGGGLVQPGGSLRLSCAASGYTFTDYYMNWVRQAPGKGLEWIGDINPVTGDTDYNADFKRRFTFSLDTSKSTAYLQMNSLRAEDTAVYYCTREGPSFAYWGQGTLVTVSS VL: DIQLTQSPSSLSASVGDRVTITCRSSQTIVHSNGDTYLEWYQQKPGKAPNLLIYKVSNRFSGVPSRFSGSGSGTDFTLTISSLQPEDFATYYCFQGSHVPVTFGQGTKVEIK"
  QUANTITY_NAME: "koff"
  READING: 0.000258

Prompt: Given the entry 54V59D / 32W50I101V (antibody, V domains shown, KCD119 TAF variant; full antibody captured on protein A) VH: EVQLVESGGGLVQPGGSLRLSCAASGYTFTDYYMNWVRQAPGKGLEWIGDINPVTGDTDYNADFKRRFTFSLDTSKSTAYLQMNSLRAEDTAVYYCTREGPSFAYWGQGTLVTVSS VL: DIQLTQSPSSLSASVGDRVTITCRSSQTIVHWNGDTYLEWYQQKPGKAPILLIYKVSNRFSGVPSRFSGSGSGTDFTLTISSLQPEDFATYYCFQGSHVPVTFGQGTKVEIK , report its measured koff.
Response: 0.000105

Prompt: Please give the measured koff for this binder: 54I59D / 32W54S101V (antibody, V domains shown, Light label printed 32W545101V, read as 32W54S101V; also called 54I59D / 32W545101V) VH: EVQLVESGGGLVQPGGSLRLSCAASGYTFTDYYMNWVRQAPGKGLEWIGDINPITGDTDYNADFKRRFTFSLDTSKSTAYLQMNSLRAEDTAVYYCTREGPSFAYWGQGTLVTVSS VL: DIQLTQSPSSLSASVGDRVTITCRSSQTIVHWNGDTYLEWYQQKPGKAPNLLISKVSNRFSGVPSRFSGSGSGTDFTLTISSLQPEDFATYYCFQGSHVPVTFGQGTKVEIK
Response: 7.29e-05

Prompt: Consider the binder 31S54I59D / 54G101V (antibody, V domains shown, KCD119 TAF variant; full antibody captured on protein A) VH: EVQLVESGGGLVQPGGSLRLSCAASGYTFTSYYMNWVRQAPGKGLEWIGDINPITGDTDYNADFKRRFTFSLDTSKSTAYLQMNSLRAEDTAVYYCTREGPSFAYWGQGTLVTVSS VL: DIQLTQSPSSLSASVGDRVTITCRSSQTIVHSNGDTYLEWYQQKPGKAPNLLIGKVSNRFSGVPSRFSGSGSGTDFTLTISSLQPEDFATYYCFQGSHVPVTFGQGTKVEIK and give its measured koff.
Response: 8.25e-05
